Test system: UACC-62
Assay: NCI tumour cell line growth inhibition, 48 h
Active and inactive are the calls of the source. Rule as the data show it: active = GI50 up to about 1.1 µM and inactive = higher.
Result category, one only: active, inactive

The following molecules have reported results that may help.
CCCCCCCCCCCCCCCCCCOCC(COP(=O)([O-])OCC[N+](C)(C)C)OC (configuration not stated): inactive
Cn1c2ccccc2n2c(=O)c3cc([N+](=O)[O-])ccc3c(C#N)c12: inactive
CN(CC(=O)O)S(=O)(=O)c1ccc(Cl)cc1: inactive
CCOC(=O)c1nc2ccc(C(F)(F)F)cc2nc1Oc1ccc(F)cc1: inactive
Cc1cc(O)cc(O)c1/N=N/c1ccc([N+](=O)[O-])cc1: inactive

Incoming: Test call, this molecule: CCSC(=O)N1c2ccc(OC)cc2C=CC1C#N (configuration not stated)
Outgoing: active

----------
Parameter: GI50. Scope: all listed entries.
Tested on: SF-295
Experiment: NCI tumour cell line growth inhibition, 48 h
The source made the active and inactive calls. Rule as the data show it: active = GI50 up to about 1.1 µM and inactive = higher.

Cc1cc(N(CCC#N)CCC#N)ccc1/C=C1\SC(=S)NC1=O: 17.5 µM (inactive)
NCCC1CN(C(=O)OCc2ccccc2)c2ccccc21 (centres undefined): 18.3 µM (inactive)
COc1ccc(C2COc3c(ccc(OC)c3OC)C2=O)cc1OC (centres undefined): > 100 µM (inactive)
CN(CC(=O)O)S(=O)(=O)c1ccc(Cl)cc1: > 100 µM (inactive)

So for CN(O)C(=O)c1ccc(OCc2cccc(Cl)c2)cc1 , the logged GI50 turned out to be 13.2 µM (inactive)

So for O=S1(=O)OCCCOS(=O)(=O)C1Br , the logged GI50 turned out to be > 100 µM (inactive)

So for COc1ccc2c(c1)CC[C@@H]1[C@@H]2CC[C@]2(C)/C(=N/OCCN3CCCC3)CC[C@@H]12 , the logged GI50 turned out to be 2.35 µM (inactive)

So for O=C1c2ccccc2-c2nc3ccc(O)cc3n21 , the logged GI50 turned out to be > 100 µM (inactive)

----------
Test system: SK-OV-3
Test: NCI tumour cell line growth inhibition, 48 h
Active and inactive are the calls of the source. No stated cut-off is given here; in the data, active = GI50 up to about 1.1 µM and inactive = higher. Residues, ends and D or L forms follow the SMILES beside them. *: point of attachment. Boc = CC(C)(C)OC(=O)*; Bz = O=C(c1ccccc1)*
Result category, one only: 1 for active, 0 for inactive

The following molecules have reported results that may help.
CCOC(=O)C1=C(O)C2C3CC4C2C(O)=C(C(=O)OCC)C2C1C3C42 (configuration not stated): 0
O=C(Nc1cccc([N+](=O)[O-])c1)c1nnn(-c2cccc([N+](=O)[O-])c2)c1O: 0

Incoming: Test call, this molecule: CC(=O)NNc1nc(C)c(C(=O)/C=C/c2cccc([N+](=O)[O-])c2)s1
Outgoing: 0

Incoming: Test call, this molecule: CC(C)/C=C1\CCC(CN2CCOCC2)C1=O (configuration not stated)
Outgoing: 0

Incoming: Test call, this molecule: CC(NC(=O)C(Cc1ccc(OC(=O)c2ccccc2)cc1)NC(=O)OC(C)(C)C)C(=O)NC(Cc1ccccc1)C(=O)NCC(N)=O (configuration not stated) (Boc-Y(Bz)AFG-NH2; configuration not given here)
Outgoing: 0

Incoming: Test call, this molecule: CCOC(=O)c1nc2ccc(C(F)(F)F)cc2nc1Oc1ccc(F)cc1
Outgoing: 0

Incoming: Test call, this molecule: O=C1OC[C@@H]2[C@@H](O)CCCCCN12
Outgoing: 0

Incoming: Test call, this molecule: COc1cc([C@H]2OC[C@H]3[C@@H]2CO[C@@H]3c2cc(OC)c3c(c2)OCO3)cc(OC)c1OC
Outgoing: 0
